# System: 786-O
# Protocol text: Euclidean distance of Cell Painting phenotypic profile (signed KS, 77 features) to DMSO centroid (dimensionless distance); 5 or 10 uM (library dependent); higher = stronger phenotypic change vs DMSO (phenoactivity)
# Experimental conditions: 48 h
Structures can show the parent of a compound that is named as a salt.
Observation type: Euclidean distance

Query: So what's the measured Euclidean distance for this one? C[C@@H](O)[C@H]1C(=O)N2C(C(=O)O)=C(SCCNC=N)C[C@H]12 [Imipenem]
Response: 0.957

Query: Same lookup for COc1cc(CNC(=O)CCCCC=CC(C)C)ccc1O [Capsaicin(Vanilloid)] , please.
Response: 1.06

Query: Same lookup for CN1CCOC(c2ccccc2)c2ccccc2C1 (stereo not drawn) [Nefopam HCl] , please.
Response: 1.21

====

# System: OVCAR4
# Protocol text: Euclidean distance of Cell Painting phenotypic profile (signed KS, 77 features) to DMSO centroid (dimensionless distance); 5 or 10 uM (library dependent); higher = stronger phenotypic change vs DMSO (phenoactivity)
# Experimental conditions: 48 h
Structures can show the parent of a compound that is named as a salt.
Observation type: Euclidean distance
When you answer, write just the number.

- Compound: "Brc1c(NC2=NCCN2)ccc2nccnc12 [Brimonidine Tartrate]"
  Euclidean distance: 0.833
- Compound: "CC[C@@H]([C@H](C)O)n1ncn(-c2ccc(N3CCN(c4ccc(OC[C@@H]5CO[C@@](Cn6cncn6)(c6ccc(F)cc6F)C5)cc4)CC3)cc2)c1=O [Posaconazole]"
  Euclidean distance: 1.21
- Compound: "CC1CNc2c(cccc2S(=O)(=O)N[C@@H](CCCNC(=N)N)C(=O)N2CC[C@@H](C)C[C@@H]2C(=O)O)C1 (some centres undefined) [Argatroban]"
  Euclidean distance: 0.903

Next item in the queue.
Query: So what's the measured Euclidean distance for this one? O=C(Nc1cccc(Nc2ncc(Br)c(NCCc3cnc[nH]3)n2)c1)N1CCCC1
Response: 3.33

====

# Tested on: A549
# Protocol text: Euclidean distance of Cell Painting phenotypic profile (signed KS, 77 features) to DMSO centroid (dimensionless distance); 5 or 10 uM (library dependent); higher = stronger phenotypic change vs DMSO (phenoactivity)
# Experimental conditions: 48 h
Counter-ions that a name gives are not always drawn.
Measured Euclidean distance of individual entries
When you answer, write just the number.

Known results for compounds:
- Compound: "C[C@@H]1CCO[C@H]2Cn3cc(C(=O)NCc4ccc(F)cc4F)c(=O)c(O)c3C(=O)N12"
  Reading: 1.81
- Compound: "C=CC(=O)Nc1cccc(Nc2nc(Nc3ccc(N4CCN(C(C)=O)CC4)cc3OC)ncc2C(F)(F)F)c1"
  Reading: 0.866
- Compound: "COC(=O)N1CCN(Cc2cccc(NC(=O)Nc3ccc(C)nc3)c2F)CC1"
  Reading: 1.17

Query: So what's the measured Euclidean distance for this one? CC(C)Nc1cccnc1N1CCN(C(=O)c2cc3cc(NS(C)(=O)=O)ccc3[nH]2)CC1 [Delavirdine (mesylate)]
Response: 0.811

Query: Same lookup for NCCS(=O)(=O)O , please.
Response: 0.858

Query: Same lookup for CNC(=O)c1cc(Oc2ccc(NC(=O)Nc3ccc(Cl)c(C(F)(F)F)c3)c(F)c2)ccn1 [Regorafenib (BAY 73-4506)] , please.
Response: 2.6

Query: Same lookup for Cc1csc(-c2nnc(Nc3ccc(Oc4ncccc4-c4ccnc(N)n4)cc3)c3ccccc23)c1 , please.
Response: 3.22

Query: Same lookup for CCOC(=O)[C@H](CCc1ccccc1)N[C@@H](C)C(=O)N1Cc2ccccc2C[C@H]1C(=O)O [Quinapril HCl] , please.
Response: 1.16

====

# System: 786-O
# Protocol text: Euclidean distance of Cell Painting phenotypic profile (signed KS, 77 features) to DMSO centroid (dimensionless distance); 5 or 10 uM (library dependent); higher = stronger phenotypic change vs DMSO (phenoactivity)
# Experimental conditions: 48 h
Where a name gives a salt, the structure may show the parent alone.
Observation type: Euclidean distance
When you answer, write just the number.

Known results for compounds:
- Compound: "CN1CCN(C(=O)c2cc3cc(Cl)ccc3[nH]2)CC1"
  Euclidean distance: 1.14
- Compound: "O=C(Oc1cc(S(=O)(=O)c2ccccc2)ccc1[N+](=O)[O-])c1ccc(Cl)cc1"
  Euclidean distance: 1.76
- Compound: "CC1(C)[C@@H](O)CC[C@]2(C)[C@H]3C(=O)C=C4[C@@H]5C[C@@](C)(C(=O)O)CC[C@]5(C)CC[C@@]4(C)[C@]3(C)CC[C@@H]12 [Enoxolone]"
  Euclidean distance: 1.06
- Compound: "C[C@@H](O)[C@H]1C(=O)N2C(C(=O)[O-])=C(SC3Cn4cnc[n+]4C3)[C@H](C)[C@H]12 (stereo partly drawn) [Biapenem]"
  Euclidean distance: 1.35
- Compound: "Nc1nc(=O)c2nc(CNc3ccc(C(=O)N[C@@H](CCC(=O)O)C(=O)O)cc3)cnc2[nH]1 [Folic acid]"
  Euclidean distance: 1.19

Query: So what's the measured Euclidean distance for this one? O=C(O)CCc1nc(-c2ccccc2)c(-c2ccccc2)o1 [Oxaprozin]
Response: 1.01

Query: Same lookup for Nc1ccc(/N=N/c2ccccc2)c(N)n1 [Phenazopyridine HCl] , please.
Response: 1.22

Query: Same lookup for CN1CCc2c(c3ccccc3n2Cc2ccc(C(=O)NO)cc2)C1 [Tubastatin A HCl] , please.
Response: 0.602

====

# Test system: DU145
# Protocol text: Euclidean distance of Cell Painting phenotypic profile (signed KS, 77 features) to DMSO centroid (dimensionless distance); 5 or 10 uM (library dependent); higher = stronger phenotypic change vs DMSO (phenoactivity)
# Experimental conditions: 48 h
Structures can show the parent of a compound that is named as a salt.
Euclidean distance below 1 gives false; Euclidean distance at or above it gives true.

Here's what some known entries look like.
- Compound: "Cc1ccc2nc(NCCN)c3ncc(C)n3c2c1"
  Assigned label: "true"
- Compound: "CC1=C(C(=O)OC(C)C)C(c2cccc([N+](=O)[O-])c2)C(C(=O)OC2CN(C(c3ccccc3)c3ccccc3)C2)=C(N)N1 (stereo unspecified)"
  Assigned label: "true"
- Compound: "COc1ccc(/C=C\\c2cc(OC)c(OC)c(OC)c2)cc1O"
  Assigned label: "true"
- Compound: "CNCCC(Oc1ccc(C(F)(F)F)cc1)c1ccccc1 (stereo unspecified) [Fluoxetine HCl]"
  Assigned label: "true"
- Compound: "Cc1cc(C(C)Nc2ccccc2)c2nc(N3CCOCC3)cc(=O)n2c1 (stereo unspecified)"
  Assigned label: "true"

Query: Quick check: does c1cn2cc(-c3ccc4cn[nH]c4c3)nc(Nc3ccc(N4CCOCC4)cc3)c2n1 have Euclidean distance greater than or equal to 1?
Response: true

Query: Same lookup for CN(C)CCC[C@@]1(c2ccc(F)cc2)OCc2cc(C#N)ccc21 [Escitalopram Oxalate] , please.
Response: true

Query: Same lookup for O=c1ccn([C@@H]2O[C@H](COP(=O)(O)OP(=O)(O)OP(=O)(O)OP(=O)(O)OC[C@H]3O[C@@H](n4ccc(=O)[nH]c4=O)[C@H](O)[C@@H]3O)[C@@H](O)[C@H]2O)c(=O)[nH]1 [Diquafosol Tetrasodium] , please.
Response: false

====

# Tested on: DU145
# Protocol text: Euclidean distance of Cell Painting phenotypic profile (signed KS, 77 features) to DMSO centroid (dimensionless distance); 5 or 10 uM (library dependent); higher = stronger phenotypic change vs DMSO (phenoactivity)
# Experimental conditions: 48 h
Observation type: Euclidean distance
When you answer, write just the number.

Known results for compounds:
- Compound: "CN(C)CCOC(C)(c1ccccc1)c1ccccn1 (centres undefined) [Doxylamine Succinate]"
  Euclidean distance: 1.18
- Compound: "CCCCCCCCCC(=O)N[C@H]1[C@H](Oc2c3cc4cc2Oc2ccc(cc2Cl)[C@@H](O[C@@H]2O[C@H](CO)[C@@H](O)[C@H](O)[C@H]2NC(C)=O)[C@@H]2NC(=O)[C@H](NC(=O)[C@@H]4NC(=O)[C@H]4NC(=O)[C@@H](Cc5ccc(c(Cl)c5)O3)NC(=O)[C@H](N)c3ccc(O)c(c3)Oc3cc(O)cc4c3)c3ccc(O)c(c3)-c3c(OC4O[C@H](CO)[C@@H](O)[C@H](O)[C@@H]4O)cc(O)cc3[C@@H](C(=O)O)NC2=O)O[C@H](CO)[C@@H](O)[C@@H]1O (some centres undefined)"
  Euclidean distance: 0.773
- Compound: "Cc1cc(S(=O)(=O)O)c2c(C)ccc(C(C)C)cc1-2 [Sodium gualenate]"
  Euclidean distance: 0.867

Next item in the queue.
Query: So what's the measured Euclidean distance for this one? CC(=O)OCC(=O)[C@@]12N=C(C)O[C@@H]1C[C@H]1[C@@H]3CCC4=CC(=O)C=C[C@]4(C)[C@H]3[C@@H](O)C[C@@]12C
Response: 2.48

====

# Test system: HEPG2
# Protocol text: Euclidean distance of Cell Painting phenotypic profile (signed KS, 77 features) to DMSO centroid (dimensionless distance); 5 or 10 uM (library dependent); higher = stronger phenotypic change vs DMSO (phenoactivity)
# Experimental conditions: 48 h
Where a name gives a salt, the structure may show the parent alone.
Observation type: Euclidean distance

- Molecule: "Oc1ncnc2[nH]ncc12 [Allopurinol]"
  Euclidean distance: 0.506
- Molecule: "O=C(O)c1cc(-c2ccccc2)nc2ccccc12 [Cinchophen]"
  Euclidean distance: 1.47
- Molecule: "Cc1c(-c2ccccc2)oc2c(C(=O)OCCN3CCCCC3)cccc2c1=O [Flavoxate HCl]"
  Euclidean distance: 0.927
- Molecule: "C[C@@H](c1ncncc1F)[C@](O)(Cn1cncn1)c1ccc(F)cc1F [Voriconazole]"
  Euclidean distance: 0.988
- Molecule: "Cn1cc(-c2ccc3c(c2)ncn3-c2cc(NS(=O)(=O)C3CC3)cc(-c3ccc(F)cc3F)c2)cn1"
  Euclidean distance: 1.6

Query: What measured Euclidean distance is associated with C[C@@H]1[C@H](O)[C@@H](C)/C=C/C=C/C=C/C=C/C=C/C=C/C=C/[C@H](O[C@@H]2O[C@H](C)[C@@H](O)[C@H](N)[C@@H]2O)C[C@@H]2O[C@](O)(C[C@@H](O)C[C@@H](O)[C@H](O)CC[C@@H](O)C[C@@H](O)CC(=O)O[C@H]1C)C[C@H](O)[C@H]2C(=O)O [Amphotericin B] on HEPG2?
Response: 1.43

Query: Same lookup for O=C1OCCN1/N=C/c1ccc([N+](=O)[O-])o1 [Furazolidone] , please.
Response: 0.999

Source listed as the supplement of paper PMC10127200.
